The origin of these recorded values is patent US9403830B2.

Target: human LTA4 hydrolase (Homo sapiens)
Sequence (P09960 whole entry): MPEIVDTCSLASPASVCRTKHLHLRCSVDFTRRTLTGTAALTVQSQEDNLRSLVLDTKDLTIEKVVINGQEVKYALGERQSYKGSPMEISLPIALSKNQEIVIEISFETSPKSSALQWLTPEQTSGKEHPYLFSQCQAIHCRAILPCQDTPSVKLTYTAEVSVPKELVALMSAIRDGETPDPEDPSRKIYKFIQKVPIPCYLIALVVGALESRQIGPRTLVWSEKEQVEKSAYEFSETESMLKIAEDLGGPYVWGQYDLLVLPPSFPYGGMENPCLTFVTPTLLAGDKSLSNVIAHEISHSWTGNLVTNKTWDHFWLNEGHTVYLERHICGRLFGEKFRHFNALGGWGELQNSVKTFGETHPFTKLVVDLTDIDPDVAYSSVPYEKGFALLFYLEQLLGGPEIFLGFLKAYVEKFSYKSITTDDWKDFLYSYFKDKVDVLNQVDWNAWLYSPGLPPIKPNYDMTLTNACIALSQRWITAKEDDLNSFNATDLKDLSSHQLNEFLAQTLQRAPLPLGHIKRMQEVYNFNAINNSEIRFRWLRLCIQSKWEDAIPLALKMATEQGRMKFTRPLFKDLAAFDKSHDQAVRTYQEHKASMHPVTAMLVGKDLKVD
pIC50: −log10 of the molar value.
observed-property: pIC50

Some solved cases for reference:
compound	readout-number
c1cc(-c2ccc(Cc3ccc4nc(CN5CCOCC5)cn4c3)cc2)[nH]n1 [Example 252]	9.03
c1cc(-c2ccc(Oc3ccc4[nH]c(C[C@@H]5CCCN5)nc4c3)cc2)[nH]n1 [Example 207]	9.77
CC(C)(O)CNC(=O)[C@H]1[C@@H]2CN(Cc3ccc4cc(Oc5ccc(-c6ccn[nH]6)cn5)ccc4n3)C[C@@H]21 [Example 40]	9.33
Cc1nc2ccc(Oc3ccc(-c4ccn[nH]4)cc3)cc2cc1CN1CCCC1 [Example 256]	8.80
c1cc(-c2ccc(Oc3ccc4c(cnn4CCN4CCCC4)c3)cc2)[nH]n1 [Example 75]	9.62
O=C1OC[C@@H]2CN(Cc3ccc4cc(Oc5ccc(-c6ccn[nH]6)cn5)ccc4n3)CCN12 [Example 16]	8.96

P = c1cc(-c2ccc(Oc3ccc4c(cnn4CCN4CCOCC4)c3)nc2)[nH]n1 [Example 111]
Q = C[C@@H]1CN(Cc2nc3cc(Oc4ccc(-c5ccn[nH]5)cc4)ccc3[nH]2)C[C@H](C)O1 [Example 53]
Ask: Identify the item whose pIC50 is the smaller number: P or Q API: response body contains the label of the selected item.
Result: P
(P: 8.70, Q: 10.02)
